Tested on: HEK-293T
protocol-text: Multiplex assay against HEK293T
Type: toxicity, cell-based
run-conditions: human, 24 h, 1 µM, compound concentration 1 uM, replicate 1
reported-property: Population Apoptotic (%)
Write down the numeric answer in % and omit the unit.

Which Population Apoptotic (%) reading was recorded for the compound COc1ccc(NS(=O)(=O)c2sc3ccc(Cl)cc3c2C)cc1N1CCNCC1.Cl ?
46

Population Apoptotic (%) lookup needed for CC(C)(C)c1cnc(CSc2cnc(NC(=O)C3CCNCC3)s2)o1 [BMS-387032] , thanks.
27

Could you tell me which Population Apoptotic (%) is on file for CC(C)N1CCC(C)(C)c2cc(C#Cc3ccc(C(=O)O)cc3)ccc21 ?
58

GET /values?readout=Population Apoptotic (%)&item= COc1cc2c(Nc3ccc(NC(=O)c4ccccc4)cc3)ncnc2cc1OCCCN1CCOCC1
29

What Population Apoptotic (%) value was documented for this compound, CN(C)CCOc1ccc(-c2nc(-c3ccncc3)c(-c3ccc4c(c3)CC/C4=N\O)[nH]2)cc1 [SB590885] ?
24

Look at this compound and give its reported Population Apoptotic (%). CCc1cc2c(cc1CC)CC(NC[C@H](O)c1ccc(O)c3[nH]c(=O)ccc13)C2 [INDACATEROL]
48

What does the data say about its Population Apoptotic (%)? Entry: CNC(=O)c1nn(C)c2c1C(C)(C)Cc1cnc(Nc3ccc(N4CCN(C)CC4)cc3)nc1-2 [MILCICLIB]
43

Bench note: what Population Apoptotic (%) did Cl.Cl.NC1(c2ccc(-c3nc4ccn5c(=O)[nH]nc5c4cc3-c3ccccc3)cc2)CCC1 show?
23

Looking for the measured Population Apoptotic (%) of CCn1c(-c2nonc2N)nc2cnc(Oc3cccc(NC(=O)c4ccc(OCCN5CCOCC5)cc4)c3)cc21 [GSK-269962A] , can you help?
56

Hey, just so you know, these numbers are from ChEMBL document CHEMBL4689842.
